test system: Leishmania donovani axenic amastigote parasites; assay: Leishmania donovani axenic amastigote proliferation assay (Cell TiterGlo luminescence, 2 day incubation); assay type: cell-based; settings: Leishmania donovani, L. donovani axenic amastigotes; read-out: L. donovani amastigotes EC50
pEC50: −log10 of the molar value.

mol: Cc1nc(C)c(C(=O)Nc2ccc(F)c(-c3cn4cc(-c5ncccc5C(F)(F)F)cnc4n3)c2)o1
sign qualifier: =
pEC50: 7.66

mol: Cc1nc(C)c(C(=O)N(C)c2ccc(F)c(-c3cn4cc(NC(C)C)cnc4n3)c2)o1
sign qualifier: <
pEC50: 4.60

mol: Cc1nc(C)c(C(=O)Nc2ccc(F)c(-c3cn4cc(-c5ccc(F)cn5)cnc4n3)c2)o1
sign qualifier: =
pEC50: 7.10

mol: O=C(Nc1ccc(F)c(-c2cn3cc(C4CC4)cnc3n2)c1)[C@H]1CC[C@@H](O)CC1
sign qualifier: =
pEC50: 5.56

mol: Cc1nc(C)c(C(=O)Nc2ccc(F)c(-c3cn4cc(-c5ccc(F)cc5)cnc4n3)c2)o1
sign qualifier: =
pEC50: 7.26

mol: Cc1cnc(-c2cnc3nc(-c4cc(NC(=O)c5oc(C)nc5C)ccc4F)cn3c2)cn1
sign qualifier: =
pEC50: 7.72

mol: Cc1nc(C)c(C(=O)Nc2ccc(F)c(-c3cn4cc(-c5ccc(CCN(C)C)cc5)cnc4n3)c2)o1
sign qualifier: =
pEC50: 5.34

mol: Cc1nc(C)c(C(=O)Nc2ccc(F)c(-c3cn4cc(-c5ccc(NC(C)C)cc5)cnc4n3)c2)o1
sign qualifier: =
pEC50: 4.61

mol: Cc1cccnc1-c1cnc2nc(-c3cc(NC(=O)N4CC(F)(F)C4)ccc3F)cn2c1
sign qualifier: =
pEC50: 7.20

mol: O=C(Nc1ccc(F)c(-c2cn3cc(-c4ccccn4)cnc3n2)c1)N1CCC1
sign qualifier: =
pEC50: 7.96

mol: O=C(Nc1ccc(Cl)c(-c2cn3cc(-c4ccccn4)cnc3n2)c1)N1CCCC1
sign qualifier: =
pEC50: 7.38

mol: Cc1nc(C)c(C(=O)N(C)c2ccc(F)c(-c3cn4cc(N(C)C(=O)OC(C)C)cnc4n3)c2)o1
sign qualifier: =
pEC50: 5.46

mol: CC(C)OC(=O)Nc1cnc2nc(-c3cc(Nc4ncccc4OC(F)(F)F)ccc3F)cn2c1
sign qualifier: <
pEC50: 4.60

mol: CCc1cnc2nc(-c3cc(NC(=O)c4oc(C)nc4C)ccc3F)cn2c1
sign qualifier: =
pEC50: 7.05

mol: CC(C)OC(=O)Nc1cnc2nc(-c3cc(Nc4ccccn4)ccc3F)cn2c1
sign qualifier: =
pEC50: 5.83

mol: Cc1nc(C)c(C(=O)Nc2ccc(F)c(-c3cn4cc(-c5nccn5C)cnc4n3)c2)o1
sign qualifier: =
pEC50: 6.63

###

Listing: pEC50 of selected compounds
system: Trypanosoma brucei Lister 427 strain, bloodstream form; assay: Assay for proliferation of kinetoplastid parasite Trypanosoma brucei (Cell Titer Glo, 48 hours); assay type: cell-based; settings: Trypanosoma brucei, T. brucei Lister 427 bloodstream form; read-out: T. brucei EC50
pEC50: −log10 of the molar value.
readout type: pEC50

compound: COC(=O)Nc1ccc(F)c(-c2cn3cc(Br)cnc3n2)c1 [Compound 517]
reading: 5.85
--
compound: Cc1nc(C)c(C(=O)Nc2ccc(F)c(-c3cn4cc([Si](C)(C)C)cnc4n3)c2)o1 [Compound 549]
reading: 6.93
--
compound: Cc1nc(C)c(C(=O)Nc2ccc(F)c(-c3cn4cc(-c5cnn(C6CCOCC6)c5)cnc4n3)c2)o1 [Compound 385]
reading: 6.43
--
compound: O=C(Nc1ccc(Cl)c(-c2cn3cc(C4=CCNCC4)cnc3n2)c1)N1CCCC1 [Compound 570]
reading: 6.61
--
compound: O=C(Nc1ccc(F)c(-c2cn3cc(-c4cccnc4)cnc3n2)c1)N1CC(F)(F)C1 [Compound 402]
reading: 7.96
--
compound: Nc1cnc2nc(-c3ccc(F)c(NC(=O)N4CCCC4)c3)cn2c1 [Compound 568]
reading: 5.01
--
compound: CC(C)(C)OC(=O)Nc1cnc2nc(-c3cccc(NC(=O)N4CCCC4)c3F)cn2c1 [Compound 579]
reading: 4.44
--
compound: Cc1nc(C)c(C(=O)Nc2ccc(F)c(-c3cn4cc(C(C)c5ccccc5)cnc4n3)c2)o1 (centres unmarked) [Compound 420]
reading: 6.28

Measured values drawn from patent US20160045505A1 for this set.
